# Percent Effect per entry
# TARGET UNDER TEST: Tyrosyl-tRNA synthetase, putative (Trypanosoma cruzi (strain CL Brener))
# Sequence (whole entry): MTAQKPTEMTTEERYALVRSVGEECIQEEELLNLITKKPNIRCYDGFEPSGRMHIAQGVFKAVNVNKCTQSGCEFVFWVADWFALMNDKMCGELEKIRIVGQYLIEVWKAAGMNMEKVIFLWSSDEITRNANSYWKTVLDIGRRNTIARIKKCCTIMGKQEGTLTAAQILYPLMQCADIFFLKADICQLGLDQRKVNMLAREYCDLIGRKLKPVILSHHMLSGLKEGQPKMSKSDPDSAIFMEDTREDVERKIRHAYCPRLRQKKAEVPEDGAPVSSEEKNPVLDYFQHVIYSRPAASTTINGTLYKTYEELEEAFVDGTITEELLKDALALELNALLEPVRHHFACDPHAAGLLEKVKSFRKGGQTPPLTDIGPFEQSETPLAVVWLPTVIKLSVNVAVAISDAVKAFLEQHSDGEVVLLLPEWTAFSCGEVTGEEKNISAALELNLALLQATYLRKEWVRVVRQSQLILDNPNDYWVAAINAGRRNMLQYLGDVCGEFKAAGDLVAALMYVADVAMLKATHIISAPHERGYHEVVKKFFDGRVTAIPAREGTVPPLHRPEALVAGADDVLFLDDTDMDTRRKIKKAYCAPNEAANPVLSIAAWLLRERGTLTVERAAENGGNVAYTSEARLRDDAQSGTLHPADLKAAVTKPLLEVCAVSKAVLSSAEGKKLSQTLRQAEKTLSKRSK
# ASSAY METHOD TEXT: Trypanosoma cruzi tyrosyl tRNA synthetase (TcYRS) SOP
# Assay type: functional
# Design: scale not given: direction of the effect not stated beside the values
# PARTICULARS: 30 µM
ASSAY ENDPOINT: Percent Effect

> print(dat)
                                   molecule  observed
1  COCC(NC(=O)c1cc[nH]n1)c1cccc(C(F)(F)F)c1 (stereo unspecified)      7.5%
2    CCn1cnnc1C1CCN(C(=O)c2cnc3ccccc3n2)CC1      2.6%
3  Cc1cccc2c1OCCC2NCc1c(C)nn(C)c1N(C)C (stereo unspecified)     7.32%
4  Cc1ccc(S(=O)(=O)N2CCc3nc(C4CCNCC4)ncc3C2)cc1     24.7%
5  Cc1occc1C(=O)N1CCC2(CCC(=O)N(CC(N)=O)C2)CC1    -7.69%
6       CC(C)N1Cc2c(C(=O)N3CCOCC3)nn(C)c2C1     5.13%

* * *

# System: Trypanosoma cruzi
# ASSAY METHOD TEXT: Trypanosoma cruzi phosphomannomutase and mannose-1-phosphate guanylyltransferase assay
# Type: functional
# Parameters: scale not given: direction of the effect not stated beside the values
# PARTICULARS: 10 µM
ASSAY ENDPOINT: Percent Effect

> print(dat)
                                    compound  target.under.test  assay.endpoint  observed
 1  CCN1CC(C(=O)N2CCC(Oc3ccccc3C)CC2)CC1=O (stereo not given)  Trypanosoma cruzi  Percent Effect    -7.94%
 2  c1ccc(OCC2CC3(CCN(c4ncccn4)CC3)CO2)nc1 (stereo not given)  Trypanosoma cruzi  Percent Effect    -1.57%
 3      O=C(NCc1ccccn1)N(Cc1ccc(F)cc1F)C1CC1  Trypanosoma cruzi  Percent Effect  -0.0944%
 4  COc1cccc(COCC(=O)N2CCCC(n3ccnc3)C2)c1 (stereo not given)  Trypanosoma cruzi  Percent Effect    -6.13%
 5  Cn1cc(-c2ncnc3c2CCN(C(=O)N2CCOCC2)CC3)cn1  Trypanosoma cruzi  Percent Effect     3.03%
 6   CN(Cc1csc(-c2cccs2)n1)C(=O)CCn1ccccc1=O  Trypanosoma cruzi  Percent Effect    -1.07%
 7  Cc1scc(C(=O)N2CCC3(CCCN(C)C3=O)C2)c1-c1ccccc1 (stereo not given)  Trypanosoma cruzi  Percent Effect    -3.09%
 8  c1ccc(COC2CCN(c3cncc(-n4cccn4)n3)CC2)cc1  Trypanosoma cruzi  Percent Effect      4.3%
 9  Nc1cc(N2CCCC2c2cnccn2)ncn1 (stereo not given)  Trypanosoma cruzi  Percent Effect     2.96%
10  COc1ccc(NC(=O)NC(C)c2nc[nH]n2)cc1 (stereo not given)  Trypanosoma cruzi  Percent Effect     3.03%
11  Cc1cc(NC(=O)CN(C)C2CCCN(c3cccnn3)C2)n(C)n1 (stereo not given)  Trypanosoma cruzi  Percent Effect     12.2%
12  Cc1ccc(CNC2CCCc3c2cnn3C)s1 (stereo not given)  Trypanosoma cruzi  Percent Effect     6.95%
13  Cn1cccc1C(=O)N1CC[C@H]2C[C@@H](c3ccncn3)O[C@@H]2C1  Trypanosoma cruzi  Percent Effect   -0.684%
14       COC1CCN(C(=O)c2c(Cl)c3ccccc3n2C)CC1  Trypanosoma cruzi  Percent Effect     3.41%
15  O=C(NC1CCS(=O)(=O)C1)N1CCN(c2cnccn2)CC1 (stereo not given)  Trypanosoma cruzi  Percent Effect     1.58%
16  COCC1c2c(cnn2CC2CC2)CCN1Cc1nccs1 (stereo not given)  Trypanosoma cruzi  Percent Effect    -4.05%
17  CC1c2ncc(Cn3cncn3)n2CCN1C1CCOCC1 (stereo not given)  Trypanosoma cruzi  Percent Effect    -4.83%
18  CC1CCCN(CCNC(=O)c2cncnc2C(C)C)C1 (stereo not given)  Trypanosoma cruzi  Percent Effect    -4.96%
19       CC(C)N1Cc2c(C(=O)N3CCOCC3)nn(C)c2C1  Trypanosoma cruzi  Percent Effect    -1.66%
20  O=C(NCC1CC1)[C@H]1CC[C@@H]2[C@@H](CCN2Cc2ccoc2)O1  Trypanosoma cruzi  Percent Effect     4.99%
21    CNS(=O)(=O)c1ccc(C(=O)NCCNc2ncccn2)cc1  Trypanosoma cruzi  Percent Effect    -2.52%
22  CCCc1nc(CN2CCOC(CNc3cccnn3)C2)cs1 (stereo not given)  Trypanosoma cruzi  Percent Effect   -0.849%
23  CCCc1cc(NC2CCc3ncnn3C2)n2ncnc2n1 (stereo not given)  Trypanosoma cruzi  Percent Effect    -2.74%
24  CN(C)S(=O)(=O)N1CCN(c2nccc(C(F)(F)F)n2)CC1  Trypanosoma cruzi  Percent Effect     7.64%
25    O=C(c1ccc[nH]1)N1CCn2cc(CN3CCCC3)nc2C1  Trypanosoma cruzi  Percent Effect    -3.35%

* * *

# Percent Effect per entry
# TARGET UNDER TEST: Tyrosyl-tRNA synthetase, putative (Trypanosoma cruzi (strain CL Brener))
# ASSAY METHOD TEXT: Trypanosoma cruzi tyrosyl tRNA synthetase (TcYRS) SOP
# Assay type: functional
# Design: scale not given: direction of the effect not stated beside the values
# PARTICULARS: 30 µM
ASSAY ENDPOINT: Percent Effect (%)

> print(dat)
                                    compound  observed
 1  CCc1noc(C(C)N2CCN(c3ccc(C#N)cn3)CC2)n1 (centres undefined)       5.2
 2      CC(C)NC(=O)NCCCc1cc(N)n(-c2ccccc2)n1      17.5
 3         CCN(CCn1cccn1)Cc1nc(-c2cccs2)oc1C      2.56
 4  CCc1n[nH]c(C2CN(CCc3cccs3)CCO2)n1 (centres undefined)      17.7
 5  CC(c1ccco1)N(C)Cc1nc2c(cnn2C)c(=O)[nH]1 (centres undefined)      28.1
 6  Cc1nn(C)c2c(N3CCN(C(=O)c4ccccc4)CC3)ncnc12      12.8
 7  CCOCC(=O)N1C[C@@H](NC(C)=O)[C@H](c2ccc(OC)cc2)C1      18.5
 8    Cc1ccccc1C(=O)NCc1ccc(N2CCNC(=O)C2)cc1      17.1
 9  N#Cc1ccnc(N2CCN(C(=O)NC3CCS(=O)(=O)C3)CC2)c1 (centres undefined)      23.2
10  Cc1cnn(CC2CCCN2C(=O)CCc2nc3ccccc3[nH]2)c1 (centres undefined)      8.86
11        COc1cc(C)nc(N2CCN(Cc3nccn3C)CC2)n1      2.56
12  CN(Cc1ccc(OC(F)F)cc1)C(=O)CS(=O)(=O)c1ccc(Cl)cc1         0
13  Cc1ccc(C(=O)N2CCn3cc(CN(C)Cc4ccco4)nc3C2)o1      3.85
14   CC(C)CCN1CN=C(NS(=O)(=O)c2ccc(F)cc2)NC1      10.3
15  CC(=O)NC(C)CC(=O)NCc1cccnc1Oc1ccccc1C (centres undefined)      12.8
16   CCc1ccc(CNC(=O)N2CCN(Cc3cc(C)no3)CC2)s1      6.17
17  CC(Cn1ccnc1)NC(=O)NCCc1ccccn1 (centres undefined)      21.9
18  CC(=O)NCC(=O)N1CCn2cc(CN3CCN(C)CC3)nc2C1      16.1
19       CCc1nnc2n1CCN(Cc1csc(-c3ccsc3)n1)C2      2.56
20  COc1c(C2CCCN2CC(=O)Nc2nc(C)cs2)c(C)nn1C (centres undefined)       6.1
21  CCC(C)NC(=O)NCCCn1nc2ccccn2c1=O (centres undefined)      18.5
22            O=C(CCNC(=O)c1ccccc1)Nc1ccncc1      10.4
23  Cn1cc2c(n1)C(COCC1CC1)CN(Cc1ccccn1)C2 (centres undefined)      10.3
24  CC(C)(C)NC(=O)NC(=O)CNC(C)(C)c1ccc2c(c1)OCCO2      13.6
